Tested on: U-251
Test: NCI tumour cell line growth inhibition, 48 h
Calls of active or inactive are those of the source. No stated cut-off is given here; in the data, active = GI50 up to about 1.1 µM and inactive = higher.
Labels: active, inactive

molecule: N#Cc1nc(-c2ccccn2)oc1N
tested target: U-251
answer label: inactive
--
molecule: COC(=O)C1=C(C(=O)OC)SC(=C2SC3=C(SC(=C4SCCS4)S3)S2)S1
tested target: U-251
answer label: inactive
--
molecule: Brc1ccc2c(-c3nc(-c4c[nH]c5ccc(Br)cc45)cs3)c[nH]c2c1
tested target: U-251
answer label: inactive
--
molecule: CC(C)C1(Cl)CCC2C3(C)CCCC(C)(C(=O)O)C3CC(Cl)C2(Cl)C1Cl (stereo unspecified)
tested target: U-251
answer label: inactive
--
molecule: CCc1cccc(C(C)C)c1NC(=O)/C(=N\NC(N)=O)C(C(=O)OC)c1cnc2ccccc2n1 (stereo unspecified)
tested target: U-251
answer label: inactive
--
molecule: CCOC(=O)[C@]12C(=C(c3ccccc3)O[C@H]3C=CCC[C@H]31)C(=O)C(=O)N2c1ccccc1
tested target: U-251
answer label: inactive
--
molecule: CCN(CC)CCCNc1ccc2nc(C)n3c4ccc(O)cc4c(=O)c1c23
tested target: U-251
answer label: inactive
--
molecule: COc1ccc(C2C3=CONC3CC3CCCCC32)cc1 (stereo unspecified)
tested target: U-251
answer label: inactive
--
molecule: CC[C@]1(Cc2ccc(OC)c(OC)c2)C=[N+]([O-])O[C@H](OC2CCCC2(c2ccccc2)c2ccccc2)[C@@H]1OC(=O)C(C)(C)C (stereo partly specified)
tested target: U-251
answer label: inactive
--
molecule: O=C(CC(O)(C(F)(F)Cl)C(F)(F)Cl)CC(O)(C(F)(F)Cl)C(F)(F)Cl
tested target: U-251
answer label: inactive
--
molecule: O=C(CC(=O)Nc1ccccc1O)Nc1ccccc1O
tested target: U-251
answer label: inactive
--
molecule: C=CCSC(C)=O
tested target: U-251
answer label: inactive
--
molecule: CCOc1ncn(-c2ccc(NC(=S)Nc3cccc(O)c3)cc2)n1
tested target: U-251
answer label: inactive
--
molecule: Cn1nc2ccc(Nc3cc(=O)[nH]c4ccc5nn(C)nc5c34)cc2n1
tested target: U-251
answer label: inactive
--
molecule: CN1CN(c2ccccc2)C2(CCN(CC(C)(c3ccc(F)cc3)C3OCCCO3)CC2)C1=O (stereo unspecified)
tested target: U-251
answer label: inactive
--
molecule: NC1CC2NC3CCCCC3NC2CC1N (stereo unspecified)
tested target: U-251
answer label: inactive
--
molecule: Cc1cccc(CP(Cc2cccc(C)c2)CC2(Cp3c4ccccc4c4ccccc43)COC2)c1
tested target: U-251
answer label: active
--
molecule: COc1c2cc(C(C)(C)C)cc1CSCc1cc(C(C)(C)C)cc(c1OC)CCCCC2
tested target: U-251
answer label: inactive
--
molecule: C=CCn1c2ccccc2[n+]2cc([N+](=O)[O-])ccc12
tested target: U-251
answer label: inactive
--
molecule: COc1ccc(CN=C(N)N)c2ccccc12
tested target: U-251
answer label: inactive
--
molecule: CC(NC(=O)OC(C)(C)C)C(=O)NC(Cc1ccccc1)C(=O)NCC(=O)Oc1c(Cl)c(Cl)c(Cl)c(Cl)c1Cl (stereo unspecified)
tested target: U-251
answer label: inactive
--
molecule: O=C(O)C1CCCN1Cc1cc2ccccc2c2ccccc12 (stereo unspecified)
tested target: U-251
answer label: inactive
--
molecule: COc1ccc(Nc2nc(N)c(C(=O)c3ccccc3)s2)cc1
tested target: U-251
answer label: active
--
molecule: COc1ccc(C(=O)c2ccc(-n3c4ccccc4c4ccc5c(c43)C(=O)C=CC5=O)cc2)cc1
tested target: U-251
answer label: inactive
--
molecule: COc1cc(O)c(C(=O)/C=C/c2ccc(OC)c(OCc3ccccc3)c2)c(OC)c1
tested target: U-251
answer label: inactive
--
molecule: Cc1[nH]c2ccccc2c1-c1cc(-c2cc(-c3c(C)[nH]c4ccccc34)nc(N)n2)nc(N)n1
tested target: U-251
answer label: inactive

----------
Listing: GI50 of selected molecules
Tested on: ACHN
Experiment: NCI tumour cell line growth inhibition, 48 h
Active and inactive are the calls of the source. Cut-off read from the data, not from the text of the source: active = GI50 up to about 1.1 µM and inactive = higher.

molecule: CCOC(=O)n1c(=O)nc2c3c(ncn21)Oc1c(c(-c2ccccc2)nn1-c1ccccc1)C3c1ccc(Cl)cc1 (stereo not given)
GI50: 1.71 µM (inactive)

molecule: CNC(=O)NS(=O)(=O)c1ccc(C)cc1.NS(=O)O
GI50: > 100 µM (inactive)

molecule: O=C(/C=C/c1ccc(Oc2cc(C(=O)/C=C/c3ccc(O)cc3)c(O)cc2O)cc1)c1ccc(O)cc1O
GI50: 9.29 µM (inactive)

molecule: CCN(CC)CCC1CCCCN1CC(=O)N1c2ccccc2NC(=O)c2ccccc21 (stereo not given)
GI50: > 100 µM (inactive)

molecule: C[N+](C)(C)CC1CCCc2ccccc2C1=O (stereo not given)
GI50: 5.02 µM (inactive)

----------
Tested on: SK-MEL-2
Assay: NCI tumour cell line growth inhibition, 48 h
Calls of active or inactive are those of the source. Rule as the data show it: active = GI50 up to about 1.1 µM and inactive = higher.

compound: O=c1oc2ccccc2n1P(=O)(Oc1ccc(Cl)cc1)n1c(=O)oc2ccccc21
GI50: 55 µM (inactive)
//
compound: CC(NC(=O)OC(C)(C)C)C(=O)NC(Cc1ccccc1)C(=O)NCC(=O)Oc1c(Cl)c(Cl)c(Cl)c(Cl)c1Cl (stereo not given)
GI50: 20.7 µM (inactive)
//
compound: O=C(O)[C@H](c1ccccc1)[C@@H](C(=O)O)c1ccccc1
GI50: > 100 µM (inactive)
//
compound: CCc1cccc(C(C)C)c1NC(=O)/C(=N\NC(N)=O)C(C(=O)OC)c1cnc2ccccc2n1 (stereo not given)
GI50: 53.3 µM (inactive)
//
compound: CC1(C)OC[C@H](C(=N)OCc2ccccc2)O1
GI50: > 100 µM (inactive)
//
compound: c1cnc2c3[nH]cc4[nH]c5ccccc5c4c-3nc2c1
GI50: 30.7 µM (inactive)
//
compound: Cc1cc(=O)oc2c(CN(CCCl)CCCl)c(O)ccc12
GI50: > 100 µM (inactive)
//
compound: COc1cc(C2S/C(=C/c3ccccc3)C(=O)N2c2cc(Cl)c(Cl)cc2Cl)cc(OC)c1OC (stereo not given)
GI50: 41.3 µM (inactive)
//
compound: Cc1ccc2sc3cc(=O)cc(C)c-3nc2c1
GI50: > 100 µM (inactive)
//
compound: N/C(=N\O)N/N=C/c1ncccc1O
GI50: 31.3 µM (inactive)

----------
Listing: GI50 of selected molecules
System: RXF 393
Assay: NCI tumour cell line growth inhibition, 48 h
The source made the active and inactive calls. Cut-off read from the data, not from the text of the source: active = GI50 up to about 1.1 µM and inactive = higher.

molecule: C/C=C/[C@@H]1O[C@H](CC#C[Si](C)(C)C)[C@@]2(C=O)C(C)=CC[C@H](C(C)C)[C@@H]12
GI50: 18 µM (inactive)
--
molecule: CC(=O)O[C@H]1C(=O)[C@@]2(C)[C@H]([C@H](OC(=O)c3ccccc3)[C@]3(O)C[C@H](OC(=O)[C@H](O)[C@@H](NC(=O)C(C)(C)C)c4ccccc4)C(C)=C1C3(C)C)[C@]1(OC(C)=O)CO[C@@H]1C[C@@H]2O
GI50: 0.188 µM (active)
--
molecule: Clc1cc(OCc2nn3c(Cc4ccccc4)nnc3s2)c(Cl)cc1OCc1nn2c(Cc3ccccc3)nnc2s1
GI50: 17 µM (inactive)
--
molecule: CN(C)/C=N\c1nc(=O)n(C2CCC(CO)O2)cc1F (stereo not drawn)
GI50: > 100 µM (inactive)
--
molecule: O=C(c1ccccc1)c1ccc2[nH]c(-c3c(Cl)c(Cl)c(Cl)c(Cl)c3C(=O)Nc3ccco3)nc2c1
GI50: 41.8 µM (inactive)
--
molecule: Nc1nncc2[nH]nnc12
GI50: > 100 µM (inactive)
--
molecule: Cc1[nH]c2ccccc2c1/C=C/c1c(C)[nH]c2ccccc12
GI50: > 100 µM (inactive)
--
molecule: CC[n+]1c(/C=C/c2ccc(N(CCCl)CCCl)cc2)ccc2cc(NC(=O)/C=C/c3ccccc3)ccc21
GI50: 0.315 µM (active)

----------
Tested on: IGROV-1
Experiment: NCI tumour cell line growth inhibition, 48 h
Calls of active or inactive are those of the source. Rule as the data show it: active = GI50 up to about 1.1 µM and inactive = higher.

compound: O=C1CCCCCC1CC(Sc1ccccc1)Sc1ccccc1 (stereo unspecified)
tested target: IGROV-1
GI50: > 100 µM (inactive)
--
compound: O=C1C(Br)=C(c2ccccc2)C(c2ccccc2)=C1c1ccccc1
tested target: IGROV-1
GI50: 4.28 µM (inactive)
--
compound: CCN(CC)CCCNc1ccc2nc(C)n3c4ccc(O)cc4c(=O)c1c23
tested target: IGROV-1
GI50: 1.64 µM (inactive)
--
compound: Nc1ccc2c(c1)Nc1c3ccccc3nc3cccc-2c13
tested target: IGROV-1
GI50: 1.25 µM (inactive)
--
compound: O=C(O)C1CCCN1Cc1cc2ccccc2c2ccccc12 (stereo unspecified)
tested target: IGROV-1
GI50: > 100 µM (inactive)
--
compound: O=C(O)C#Cc1ccc([N+](=O)[O-])cc1
tested target: IGROV-1
GI50: > 100 µM (inactive)

Where do these numbers come from? They come from ChEMBL document CHEMBL1201862.
